System: Escherichia coli TOP10
Assay: shrunken log2 fold change of peptide-encoding DNA abundance (4.5 h post-induction vs induction); higher = less antimicrobial activity (less host growth inhibition)
Settings: time post-induction: 4.5 h; library: site-saturation at positions 5, 18, 19, 20
Reported shrunken log2 fold change values are given for each entry in this list.

# ordered_residues, shrunken log2 fold change
data = [
    ("RRIRYRPPRLPRPRPRPSPEPRP", -0.458),
    ("RRIRDRPPRLPRPRPRPCCWPRP", 0.582),
    ("RRIRVRPPRLPRPRPRPSWDPRP", 0.192),
    ("RRIRERPPRLPRPRPRPTHWPRP", 1.02),
    ("RRIRERPPRLPRPRPRPWRPPRP", 0.0707),
    ("RRIRARPPRLPRPRPRPFPFPRP", -0.112),
    ("RRIRSRPPRLPRPRPRPTENPRP", 0.148),
    ("RRIRTRPPRLPRPRPRPLECPRP", -0.0489),
    ("RRIRMRPPRLPRPRPRPNTGPRP", 0.151),
    ("RRIRYRPPRLPRPRPRPLAIPRP", -0.778),
    ("RRIRWRPPRLPRPRPRPAQEPRP", 0.149),
    ("RRIRARPPRLPRPRPRPQHDPRP", -0.117),
    ("RRIRCRPPRLPRPRPRPPGMPRP", 0.326),
    ("RRIRMRPPRLPRPRPRPGVRPRP", 1.42),
    ("RRIRARPPRLPRPRPRPWVSPRP", -0.0266),
    ("RRIRIRPPRLPRPRPRPTLYPRP", -0.348),
    ("RRIRQRPPRLPRPRPRPFPNPRP", -0.0586),
    ("RRIRYRPPRLPRPRPRPYLTPRP", -0.305),
    ("RRIRARPPRLPRPRPRPAFLPRP", 0.486),
    ("RRIRMRPPRLPRPRPRPHEEPRP", 0.053),
    ("RRIRIRPPRLPRPRPRPHPKPRP", -0.258),
    ("RRIRGRPPRLPRPRPRPWWSPRP", 0.00664),
    ("RRIRIRPPRLPRPRPRPCQAPRP", -0.025),
    ("RRIRGRPPRLPRPRPRPVARPRP", 0.58),
    ("RRIRIRPPRLPRPRPRPFRVPRP", -0.369),
    ("RRIRCRPPRLPRPRPRPCVMPRP", -0.0643),
    ("RRIRDRPPRLPRPRPRPPPPPRP", 0.899),
    ("RRIRDRPPRLPRPRPRPQRRPRP", 0.255),
    ("RRIRNRPPRLPRPRPRPVFHPRP", -0.256),
    ("RRIRLRPPRLPRPRPRPLRGPRP", 1.11),
    ("RRIRNRPPRLPRPRPRPRNLPRP", -0.0378),
    ("RRIRIRPPRLPRPRPRPDHMPRP", -0.87),
]

----------
System: Escherichia coli TOP10
Experiment: shrunken log2 fold change of peptide-encoding DNA abundance (4.5 h post-induction vs induction); higher = less antimicrobial activity (less host growth inhibition)
Settings: time post-induction: 4.5 h; library: site-saturation at positions 5, 18, 19, 20
parameter: shrunken log2 fold change

# ordered_residues, parameter, observed_measurement
measured = [
    ("RRIRKRPPRLPRPRPRPAMTPRP", "shrunken log2 fold change", 0.596),
    ("RRIRERPPRLPRPRPRPYMTPRP", "shrunken log2 fold change", -0.124),
    ("RRIRKRPPRLPRPRPRPPYAPRP", "shrunken log2 fold change", 0.424),
    ("RRIRRRPPRLPRPRPRPYTTPRP", "shrunken log2 fold change", -0.354),
    ("RRIRCRPPRLPRPRPRPVFEPRP", "shrunken log2 fold change", -0.00537),
    ("RRIRTRPPRLPRPRPRPRAWPRP", "shrunken log2 fold change", 0.132),
    ("RRIRVRPPRLPRPRPRPTRDPRP", "shrunken log2 fold change", 0.472),
    ("RRIRDRPPRLPRPRPRPMSQPRP", "shrunken log2 fold change", -0.236),
    ("RRIRKRPPRLPRPRPRPKMWPRP", "shrunken log2 fold change", 0.363),
    ("RRIRMRPPRLPRPRPRPGVNPRP", "shrunken log2 fold change", -0.0818),
    ("RRIRIRPPRLPRPRPRPWQQPRP", "shrunken log2 fold change", 0.0529),
    ("RRIRVRPPRLPRPRPRPMIIPRP", "shrunken log2 fold change", -1.25),
    ("RRIRYRPPRLPRPRPRPDWDPRP", "shrunken log2 fold change", -0.543),
    ("RRIRYRPPRLPRPRPRPVANPRP", "shrunken log2 fold change", -0.0575),
    ("RRIRPRPPRLPRPRPRPEDHPRP", "shrunken log2 fold change", -0.131),
]

----------
Tested on: Escherichia coli TOP10
Assay: shrunken log2 fold change of peptide-encoding DNA abundance (4.5 h post-induction vs induction); higher = less antimicrobial activity (less host growth inhibition)
Conditions: time post-induction: 4.5 h; library: site-saturation at positions 5, 18, 19, 20

# ordered_residues, shrunken log2 fold change
records = [
    ("RRIRCRPPRLPRPRPRPVTEPRP", -0.127),
    ("RRIRARPPRLPRPRPRPQFIPRP", -0.382),
    ("RRIRVRPPRLPRPRPRPWTLPRP", 0.113),
    ("RRIRNRPPRLPRPRPRPACMPRP", 0.0165),
    ("RRIRERPPRLPRPRPRPKIRPRP", -0.121),
    ("RRIRGRPPRLPRPRPRPPSSPRP", 0.703),
    ("RRIRYRPPRLPRPRPRPAFLPRP", -0.365),
    ("RRIRSRPPRLPRPRPRPDYLPRP", -0.0749),
    ("RRIRSRPPRLPRPRPRPNSSPRP", -0.31),
    ("RRIRHRPPRLPRPRPRPNWEPRP", -0.0833),
    ("RRIRTRPPRLPRPRPRPVVAPRP", 0.418),
    ("RRIRWRPPRLPRPRPRPLADPRP", 1.06),
    ("RRIRDRPPRLPRPRPRPNCLPRP", 0.0835),
    ("RRIRRRPPRLPRPRPRPACKPRP", 0.163),
    ("RRIRCRPPRLPRPRPRPKCLPRP", 0.036),
    ("RRIRLRPPRLPRPRPRPDHCPRP", -0.0562),
    ("RRIRERPPRLPRPRPRPGEVPRP", 0.0814),
    ("RRIRVRPPRLPRPRPRPKICPRP", -0.0576),
    ("RRIRDRPPRLPRPRPRPWLKPRP", -0.00783),
    ("RRIRARPPRLPRPRPRPESYPRP", 1.13),
    ("RRIRMRPPRLPRPRPRPFFLPRP", -0.199),
]

----------
System: Escherichia coli TOP10;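 further: peptides expressed intracellularly from a pBAD plasmid library in pooled LB shake-flask culture, induced with 0.3% L-arabinose, DNA abundance read by NGS, three biological replicates, DESeq2 with apeglm shrinkage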
Experiment: shrunken log2 fold change of peptide-encoding DNA abundance (4.5 h post-induction vs induction); higher = less antimicrobial activity (less host growth inhibition)
Details: time post-induction: 4.5 h; library: site-saturation at positions 5, 18, 19, 20
// class assignment uses shrunken log2 fold change with these ranges: lower bin: < -0.3; middle bin: ≥ -0.3 and < -0.01; upper bin: ≥ -0.01

# ordered_residues, target_of_assay, qualitative_label
measured = [
    ("RRIRPRPPRLPRPRPRPCFNPRP", "Escherichia coli TOP10", "lower bin"),
    ("RRIRERPPRLPRPRPRPGNVPRP", "Escherichia coli TOP10", "middle bin"),
    ("RRIRMRPPRLPRPRPRPVDVPRP", "Escherichia coli TOP10", "middle bin"),
    ("RRIRIRPPRLPRPRPRPWRFPRP", "Escherichia coli TOP10", "middle bin"),
    ("RRIRDRPPRLPRPRPRPWIQPRP", "Escherichia coli TOP10", "lower bin"),
    ("RRIRERPPRLPRPRPRPKNGPRP", "Escherichia coli TOP10", "middle bin"),
    ("RRIRNRPPRLPRPRPRPMKGPRP", "Escherichia coli TOP10", "middle bin"),
    ("RRIRGRPPRLPRPRPRPVWRPRP", "Escherichia coli TOP10", "upper bin"),
    ("RRIRNRPPRLPRPRPRPPPNPRP", "Escherichia coli TOP10", "upper bin"),
    ("RRIRCRPPRLPRPRPRPIIHPRP", "Escherichia coli TOP10", "lower bin"),
    ("RRIRDRPPRLPRPRPRPRPKPRP", "Escherichia coli TOP10", "upper bin"),
]
